The measured values listed here are drawn from patent US20040197818A1.

For each entry below, report its deactivation fast time constant value.
system: HERG (human, UniProt Q12809 1-1159)
Sequence (Q12809 whole entry): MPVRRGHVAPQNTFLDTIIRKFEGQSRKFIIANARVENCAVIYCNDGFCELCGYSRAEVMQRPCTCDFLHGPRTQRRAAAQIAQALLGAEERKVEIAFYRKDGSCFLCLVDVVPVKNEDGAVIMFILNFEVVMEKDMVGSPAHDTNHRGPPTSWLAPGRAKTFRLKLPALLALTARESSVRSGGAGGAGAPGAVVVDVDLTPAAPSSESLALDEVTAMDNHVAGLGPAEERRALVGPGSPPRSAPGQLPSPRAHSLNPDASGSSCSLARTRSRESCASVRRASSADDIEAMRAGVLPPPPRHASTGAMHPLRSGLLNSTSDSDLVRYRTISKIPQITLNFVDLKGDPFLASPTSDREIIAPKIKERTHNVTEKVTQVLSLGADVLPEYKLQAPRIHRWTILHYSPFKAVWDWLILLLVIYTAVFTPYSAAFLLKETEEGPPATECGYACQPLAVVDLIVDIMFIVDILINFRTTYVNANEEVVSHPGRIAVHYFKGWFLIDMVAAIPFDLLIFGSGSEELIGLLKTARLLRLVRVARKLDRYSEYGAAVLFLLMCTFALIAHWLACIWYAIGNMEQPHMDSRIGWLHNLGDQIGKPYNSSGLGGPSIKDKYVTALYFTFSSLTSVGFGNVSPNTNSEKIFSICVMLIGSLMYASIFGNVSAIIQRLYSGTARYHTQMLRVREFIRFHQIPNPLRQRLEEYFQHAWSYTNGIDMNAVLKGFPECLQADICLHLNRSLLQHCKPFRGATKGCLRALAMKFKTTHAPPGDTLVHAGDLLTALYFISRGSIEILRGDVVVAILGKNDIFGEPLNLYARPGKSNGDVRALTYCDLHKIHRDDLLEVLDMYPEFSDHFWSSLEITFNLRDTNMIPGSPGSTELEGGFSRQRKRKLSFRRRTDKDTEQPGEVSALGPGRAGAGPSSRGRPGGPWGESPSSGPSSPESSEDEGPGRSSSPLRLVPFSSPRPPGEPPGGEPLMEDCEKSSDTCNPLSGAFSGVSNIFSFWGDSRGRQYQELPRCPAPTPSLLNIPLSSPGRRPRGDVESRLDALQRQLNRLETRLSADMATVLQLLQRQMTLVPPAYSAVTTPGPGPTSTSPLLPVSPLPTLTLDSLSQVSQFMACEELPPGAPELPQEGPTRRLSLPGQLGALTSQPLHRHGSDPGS
experimentDescription: cell-based or functional assay
One number for each entry.

Report deactivation fast time constant for each item below.
1. M54T-hMiRP1 (other) MSTLSNFTQTLEDVFRRIFITYMDNWRQNTTAEQEALQAKVDAENFYYVILYLTVMIGMFSFIIVAILVSTVKSKRREHSNDPYHQYIVEDWQEKYKSQILNLEESKATIHENIGAAGFKMSP
2. Q9E-hMiRP1 (other) MSTLSNFTETLEDVFRRIFITYMDNWRQNTTAEQEALQAKVDAENFYYVILYLMVMIGMFSFIIVAILVSTVKSKRREHSNDPYHQYIVEDWQEKYKSQILNLEESKATIHENIGAAGFKMSP
3. T8A-hMiRP1 (other) MSTLSNFAQTLEDVFRRIFITYMDNWRQNTTAEQEALQAKVDAENFYYVILYLMVMIGMFSFIIVAILVSTVKSKRREHSNDPYHQYIVEDWQEKYKSQILNLEESKATIHENIGAAGFKMSP

37
100
100

wild type human MiRP1 (other) MSTLSNFTQTLEDVFRRIFITYMDNWRQNTTAEQEALQAKVDAENFYYVILYLMVMIGMFSFIIVAILVSTVKSKRREHSNDPYHQYIVEDWQEKYKSQILNLEESKATIHENIGAAGFKMSP yielded deactivation fast time constant of 80
